Source of measurements: ChEMBL document CHEMBL5120857

target: Poly [ADP-ribose] polymerase tankyrase-2 (Homo sapiens) (UniProt Q9H2K2); conditions: dose 10.0 nM, time 1.0 hrs
Sequence (Q9H2K2 whole entry): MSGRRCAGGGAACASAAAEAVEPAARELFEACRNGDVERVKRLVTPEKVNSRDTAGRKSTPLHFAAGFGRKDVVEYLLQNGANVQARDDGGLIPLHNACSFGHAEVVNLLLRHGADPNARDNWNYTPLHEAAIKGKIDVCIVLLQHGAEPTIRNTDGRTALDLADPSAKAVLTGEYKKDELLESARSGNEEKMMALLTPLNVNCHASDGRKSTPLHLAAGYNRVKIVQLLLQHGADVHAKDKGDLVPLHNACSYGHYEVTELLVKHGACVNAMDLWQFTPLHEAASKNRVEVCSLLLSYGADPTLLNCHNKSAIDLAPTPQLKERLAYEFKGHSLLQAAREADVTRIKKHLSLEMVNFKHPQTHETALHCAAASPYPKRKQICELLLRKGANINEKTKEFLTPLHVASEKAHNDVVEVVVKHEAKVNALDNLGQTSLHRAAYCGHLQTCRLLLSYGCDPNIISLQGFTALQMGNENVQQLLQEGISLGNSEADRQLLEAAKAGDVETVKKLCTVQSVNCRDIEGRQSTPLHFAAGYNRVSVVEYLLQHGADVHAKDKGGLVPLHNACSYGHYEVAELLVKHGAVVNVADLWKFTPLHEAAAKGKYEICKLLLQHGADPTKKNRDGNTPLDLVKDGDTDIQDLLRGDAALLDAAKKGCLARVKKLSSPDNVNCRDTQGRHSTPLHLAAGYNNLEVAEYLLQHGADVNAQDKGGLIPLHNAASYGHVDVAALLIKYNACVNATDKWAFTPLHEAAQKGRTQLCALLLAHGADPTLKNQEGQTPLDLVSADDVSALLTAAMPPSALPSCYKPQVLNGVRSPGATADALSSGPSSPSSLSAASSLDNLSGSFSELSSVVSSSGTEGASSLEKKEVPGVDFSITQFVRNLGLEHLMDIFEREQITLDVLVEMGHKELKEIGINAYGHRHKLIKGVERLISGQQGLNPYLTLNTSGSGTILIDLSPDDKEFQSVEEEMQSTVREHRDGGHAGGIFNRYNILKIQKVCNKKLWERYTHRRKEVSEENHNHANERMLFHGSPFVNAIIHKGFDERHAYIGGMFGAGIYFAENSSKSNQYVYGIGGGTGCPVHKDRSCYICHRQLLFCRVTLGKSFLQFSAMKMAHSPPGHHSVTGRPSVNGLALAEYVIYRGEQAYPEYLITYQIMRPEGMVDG
inhibition for assorted compounds
Answer format: number, then unit.

Completed entries (count: 3):
{"columns": ["smiles", "test target", "inhibition"],
 "data": [
  ["Cc1cccc(NC(=O)c2ccc(NC(=O)N3CCN(C(=O)c4cc(Cc5n[nH]c(=O)c6ccccc56)ccc4F)CC3)cc2)c1", "Poly [ADP-ribose] polymerase tankyrase-2 (Homo sapiens) (UniProt Q9H2K2)", "29.5%"],
  ["Cc1ccccc1NC(=O)c1ccc(NC(=O)N2CCN(C(=O)c3cc(Cc4n[nH]c(=O)c5ccccc45)ccc3F)CC2)cc1", "Poly [ADP-ribose] polymerase tankyrase-2 (Homo sapiens) (UniProt Q9H2K2)", "40%"],
  ["O=C(Nc1ccc(F)cc1)c1ccc(NC(=O)N2CCN(C(=O)c3cc(Cc4n[nH]c(=O)c5ccccc45)ccc3F)CC2)cc1", "Poly [ADP-ribose] polymerase tankyrase-2 (Homo sapiens) (UniProt Q9H2K2)", "38%"]
]}

I would be grateful if you could share the reported inhibition for O=C(Nc1cccc2cccnc12)c1ccc(NC(=O)N2CCN(C(=O)c3cc(Cc4n[nH]c(=O)c5ccccc45)ccc3F)CC2)cc1 .
28%

I would be grateful if you could share the reported inhibition for COc1ccc(NC(=O)c2ccc(NC(=O)N3CCN(C(=O)c4cc5cccc(C(N)=O)c5o4)CC3)cc2)cc1 .
22.5%

I would be grateful if you could share the reported inhibition for COc1ccc(NC(=O)c2ccc(NC(=O)N3CCN(C(=O)c4cc(Cc5n[nH]c(=O)c6ccccc56)ccc4F)CC3)cc2)cc1 .
68.5%

I would be grateful if you could share the reported inhibition for O=C(Nc1ccc(C(F)(F)F)cc1)c1ccc(NC(=O)N2CCN(C(=O)c3cc(Cc4n[nH]c(=O)c5ccccc45)ccc3F)CC2)cc1 .
28%

I would be grateful if you could share the reported inhibition for Cc1ccc(NC(=O)c2ccc(NC(=O)N3CCN(C(=O)c4cc(Cc5n[nH]c(=O)c6ccccc56)ccc4F)CC3)cc2)cc1 .
48%

I would be grateful if you could share the reported inhibition for O=C(Nc1cccc(F)c1)c1ccc(NC(=O)N2CCN(C(=O)c3cc(Cc4n[nH]c(=O)c5ccccc45)ccc3F)CC2)cc1 .
26%

I would be grateful if you could share the reported inhibition for O=C(Nc1ccccc1F)c1ccc(NC(=O)N2CCN(C(=O)c3cc(Cc4n[nH]c(=O)c5ccccc45)ccc3F)CC2)cc1 .
36%

I would be grateful if you could share the reported inhibition for COc1ccc(NC(=O)c2ccc(NC(=O)C3CCN(C(=O)c4cc(Cc5n[nH]c(=O)c6ccccc56)ccc4F)CC3)cc2)cc1 .
11.5%
